Reported AC50 values, UniProtKB P35462.
Sequence (P35462 whole entry): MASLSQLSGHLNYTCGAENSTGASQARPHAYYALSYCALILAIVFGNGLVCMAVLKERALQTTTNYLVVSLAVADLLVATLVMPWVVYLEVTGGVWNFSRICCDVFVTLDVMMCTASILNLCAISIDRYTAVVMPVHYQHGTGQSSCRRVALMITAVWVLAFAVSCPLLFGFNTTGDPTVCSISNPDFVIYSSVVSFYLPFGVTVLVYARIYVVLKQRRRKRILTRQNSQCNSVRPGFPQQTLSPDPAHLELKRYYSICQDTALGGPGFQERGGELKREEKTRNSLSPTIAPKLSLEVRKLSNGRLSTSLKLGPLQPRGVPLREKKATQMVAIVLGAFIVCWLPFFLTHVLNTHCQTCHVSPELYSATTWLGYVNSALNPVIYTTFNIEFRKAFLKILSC

Reported AC50 for NC[C@H]1CC[C@H](C(=O)Oc2ccc(CCC(=O)O)cc2)CC1 [CETRAXATE] : what is it?
> 30 µM

Reported AC50 for Cc1ccccc1-n1c(CF)nc2ccc(N)cc2c1=O : what is it?
> 30 µM

Reported AC50 for C/C=C(/C(=C/C)c1ccc(O)cc1)c1ccc(O)cc1 : what is it?
> 30 µM

Reported AC50 for C=CCN1CCc2nc(N)sc2CC1 [TALIPEXOLE] : what is it?
0.48 µM

Reported AC50 for C[N+]1(C)CCC(=C(c2ccccc2)c2ccccc2)CC1 : what is it?
> 30 µM

Reported AC50 for O=S1(=O)CCN(CN2CCS(=O)(=O)NC2)CN1 : what is it?
27 µM

Reported AC50 for OC[C@H]1O[C@@H](n2cnc3c2NC=NC[C@H]3O)C[C@@H]1O : what is it?
> 30 µM

Reported AC50 for O=C1c2cccc3c2[C@H](CCC3)CN1[C@@H]1CN2CCC1CC2 : what is it?
29 µM

Reported AC50 for O=C1OC(OC(=O)c2cccnc2Nc2cccc(C(F)(F)F)c2)c2ccccc21 (stereo unspecified) [TALNIFLUMATE] : what is it?
> 30 µM

Reported AC50 for COC(=O)C1=C(C)NC(C)=C(C(=O)OCCN2CCN(C(c3ccccc3)c3ccccc3)CC2)C1c1cccc([N+](=O)[O-])c1 (stereo unspecified) : what is it?
6.3 µM

Reported AC50 for CC(C)NC[C@H](O)COc1ccc(CC(N)=O)cc1 : what is it?
> 10 µM

Taken from ChEMBL document CHEMBL5291721.
